- target: sGC α1/β1 heterodimer stably expressed in CHO-K1 cell line (CHO-K1/sGC) (Homo sapiens, UniProt Q02108+Q02153)
- Construct: expressed in transfected cells
- assayNotes: Cell-based sGC Functional Assay (CASA Assay), cGMP generation
- measurementSetup: CHO-K1/sGC cells, 1 hr at 37° C., cGMP by HTRF, 4P fit; presence or absence of 1 μM DETA-NO not given; read-out: IP (nM) (inflection point)
measuredMetric: EC50 (nM)

1. CC1(c2ccc(Cl)cc2)C(=O)Nc2nc(-c3cn4ncnc4c(CCCC(F)(F)F)n3)nc(N)c21 (stereo not shown) [Example 29A]: 11.4
2. Nc1nc(-c2cn3ncnc3c(CCCC(F)(F)F)n2)nc2c1C(c1ccc(O)cn1)(C1CC1)C(=O)N2 (stereo not shown) [Example 112A]: 212
3. Cc1ccc(C2(C3CC3)C(=O)Nc3nc(-c4cn5ncnc5c(CCCC(F)(F)F)n4)nc(N)c32)nc1 (racemic) [Example 47B]: 144
4. CCCCc1nc(-c2nc(O)c3c(n2)NC(=O)C3(C)c2cccc(F)c2)cn2ncnc12 (stereo not shown) [Example 171A]: 137

---

- target: sGC α1/β1 heterodimer stably expressed in CHO-K1 cell line (CHO-K1/sGC) (Homo sapiens, UniProt Q02108+Q02153)
- Construct: expressed in transfected cells
- assayNotes: Cell-based sGC Functional Assay (CASA Assay), cGMP generation
- measurementSetup: CHO-K1/sGC cells, 1 hr at 37° C., cGMP by HTRF, 4P fit; presence or absence of 1 μM DETA-NO not given; read-out: IP (nM) (inflection point)
Each entry below carries its recorded EC50.
measuredMetric: EC50 (nM)

1) Nc1nc(-c2cn3ncnc3c(CCC(F)(F)C(F)(F)F)n2)nc2c1C(c1nnc(C3CC3)o1)(C1CC1)C(=O)N2 (stereo not shown) [Example 107A]: 74.7
2) CCCCc1nc(-c2nc(N)c3c(n2)NC(=O)C3(c2nnc(C(F)(F)F)o2)C2CC2)cn2ncnc12 (stereo not shown) [Example 105A]: 26.7
3) CC(C)Cc1nc(-c2ncc3c(n2)NC(=O)[C@@]3(C)c2ccc(F)cc2)cn2ncnc12 [Example 173A]: 574
4) Nc1nc(-c2cn3ncnc3c(CCCC(F)(F)F)n2)nc2c1C(c1ccc(F)cc1)(C1CC1)C(=O)N2 (stereo not shown) [Example 30B]: 36.7
5) CC1(c2ccc(C(F)(F)F)cc2)C(=O)Nc2nc(-c3cn4ncnc4c(CCCC(F)(F)F)n3)nc(N)c21 (stereo not shown) [Example 24B]: 27.1
6) Nc1nc(-c2cn3ncnc3c(CCC(F)(F)C(F)(F)F)n2)nc2c1C(c1ccc(Cl)cn1)(C1CC1)C(=O)N2 (stereo not shown) [Example 7A]: 41.4
7) Nc1nc(-c2cn3ncnc3c(CCCC(F)(F)F)n2)nc2c1C(c1nnc(C(F)(F)F)o1)(C1CC1)C(=O)N2 (stereo not shown) [Example 106A]: 15.5

---

- target: sGC α1/β1 heterodimer stably expressed in CHO-K1 cell line (CHO-K1/sGC) (Homo sapiens, UniProt Q02108+Q02153)
- Construct: expressed in transfected cells
- assayNotes: Cell-based sGC Functional Assay (CASA Assay), cGMP generation
- measurementSetup: CHO-K1/sGC cells, 1 hr at 37° C., cGMP by HTRF, 4P fit; presence or absence of 1 μM DETA-NO not given; read-out: IP (nM) (inflection point)
Here, each record is paired with measured EC50 data.
measuredMetric: EC50 (nM)

1. Cc1ccc(C2(C)C(=O)Nc3nc(-c4cn5ncnc5c(CCCC(F)(F)F)n4)nc(N)c32)nc1 (stereo not shown) [Example 46B]: 10.1
2. CC1(c2ccc(C(F)F)cn2)C(=O)Nc2nc(-c3cn4ncnc4c(CCCC(F)(F)F)n3)nc(N)c21 (stereo not shown) [Example 43B]: 45.6
3. CC1(c2ccc(C#N)cn2)C(=O)Nc2nc(-c3cn4ncnc4c(CCC(F)(F)C(F)(F)F)n3)nc(N)c21 (stereo not shown) [Example 18A]: 38.6
4. Nc1nc(-c2cn3ncnc3c(CCC(F)(F)C(F)(F)F)n2)nc2c1C(c1ccccn1)(C1CC1)C(=O)N2 (stereo not shown) [Example 114A]: 144
5. COc1ccc(C2(C3CC3)C(=O)Nc3nc(-c4cn5ncnc5c(CCCC(F)(F)F)n4)nc(N)c32)nc1 (stereo not shown) [Example 39A]: 20.1
6. Cc1ccc(C2(C)C(=O)Nc3nc(-c4cn5ncnc5c(CCCC(F)(F)F)n4)nc(O)c32)nc1 (stereo not shown) [Example 149B]: 990
7. CC(F)(F)c1ccc(C2(C)C(=O)Nc3nc(-c4cn5ncnc5c(CCCC(F)(F)F)n4)nc(N)c32)cn1 (racemic) [Example 45B]: 44.2

---

Catalogue of EC50 values
- target: sGC α1/β1 heterodimer stably expressed in CHO-K1 cell line (CHO-K1/sGC) (Homo sapiens, UniProt Q02108+Q02153)
- Construct: expressed in transfected cells
- assayNotes: Cell-based sGC Functional Assay (CASA Assay), cGMP generation
- measurementSetup: CHO-K1/sGC cells, 1 hr at 37° C., cGMP by HTRF, 4P fit; presence or absence of 1 μM DETA-NO not given; read-out: IP (nM) (inflection point)
- Method: sGC is a heme-containing enzyme that converts GTP to secondary messenger cGMP. Increases in cGMP levels affect several physiological processes including vasorelaxation through multiple downstream pathways. […] [drawing 300] […] The test compounds' activities were then expressed as a percentage of Compound A, the standard in every experiment. This percent activation was calculated either in the presence or absence of DETA-NO which was then plotted. […]
measuredMetric: EC50 (nM)

1. Cc1ccc(C2(C)C(=O)Nc3nc(-c4cn5ncnc5c(CCC(F)(F)C(F)(F)F)n4)nc(N)c32)nc1 (stereo not shown) [Example 19B]: 14.7
2. CC1(c2ccc(Cl)cc2)C(=O)Nc2nc(-c3cn4ncnc4c(CCC(F)(F)C(F)(F)F)n3)nc(N)c21 (stereo not shown) [Example 10A]: 15.8
3. CC1(c2ccc(F)c(Cl)c2)C(=O)Nc2nc(-c3cn4ncnc4c(CCCC(F)(F)F)n3)nc(N)c21 (stereo not shown) [Example 42B]: 8.7
4. CC1(c2nnc(C3CC3)o2)C(=O)Nc2nc(-c3cn4ncnc4c(CCCC(F)(F)F)n3)nc(N)c21 (stereo not shown) [Example 99A]: 47.5

---

Each entry below carries its recorded EC50.
- target: sGC α1/β1 heterodimer stably expressed in CHO-K1 cell line (CHO-K1/sGC) (Homo sapiens, UniProt Q02108+Q02153)
- Construct: expressed in transfected cells
- Sequence (Q02108 1-690): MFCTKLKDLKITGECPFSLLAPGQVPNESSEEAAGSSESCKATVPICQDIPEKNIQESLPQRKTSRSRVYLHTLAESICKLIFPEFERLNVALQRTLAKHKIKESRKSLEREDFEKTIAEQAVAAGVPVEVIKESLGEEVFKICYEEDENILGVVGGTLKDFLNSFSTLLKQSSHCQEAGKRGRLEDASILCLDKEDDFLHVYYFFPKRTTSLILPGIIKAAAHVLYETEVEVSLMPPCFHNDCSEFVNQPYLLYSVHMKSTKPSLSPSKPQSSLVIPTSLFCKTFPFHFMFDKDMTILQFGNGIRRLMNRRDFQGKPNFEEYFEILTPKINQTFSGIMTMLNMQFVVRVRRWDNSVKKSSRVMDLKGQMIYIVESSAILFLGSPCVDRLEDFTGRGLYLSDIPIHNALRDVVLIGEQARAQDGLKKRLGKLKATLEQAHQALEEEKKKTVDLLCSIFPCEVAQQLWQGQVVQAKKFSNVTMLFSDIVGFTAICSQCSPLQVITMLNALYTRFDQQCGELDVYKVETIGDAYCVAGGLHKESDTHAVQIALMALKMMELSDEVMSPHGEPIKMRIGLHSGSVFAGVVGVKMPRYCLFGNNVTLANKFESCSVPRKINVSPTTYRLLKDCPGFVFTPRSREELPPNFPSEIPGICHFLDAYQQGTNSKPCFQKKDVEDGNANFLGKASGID
- Sequence (Q02153 1-619): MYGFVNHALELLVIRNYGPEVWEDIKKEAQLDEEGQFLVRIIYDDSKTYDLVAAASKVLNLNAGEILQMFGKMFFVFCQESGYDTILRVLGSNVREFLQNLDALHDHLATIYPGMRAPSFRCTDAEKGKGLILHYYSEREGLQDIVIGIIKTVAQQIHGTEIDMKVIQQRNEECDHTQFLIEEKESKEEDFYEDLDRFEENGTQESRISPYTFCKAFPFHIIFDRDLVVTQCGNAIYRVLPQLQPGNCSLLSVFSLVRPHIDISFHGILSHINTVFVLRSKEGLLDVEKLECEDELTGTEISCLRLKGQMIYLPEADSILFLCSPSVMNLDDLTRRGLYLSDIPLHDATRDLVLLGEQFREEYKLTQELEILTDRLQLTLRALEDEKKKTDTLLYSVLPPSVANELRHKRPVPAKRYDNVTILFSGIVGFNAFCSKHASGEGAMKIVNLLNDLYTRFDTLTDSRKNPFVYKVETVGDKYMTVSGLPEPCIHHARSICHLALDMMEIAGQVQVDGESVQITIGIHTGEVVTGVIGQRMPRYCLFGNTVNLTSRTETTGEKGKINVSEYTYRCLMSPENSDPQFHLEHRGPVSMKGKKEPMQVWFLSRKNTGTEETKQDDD
- assayNotes: Cell-based sGC Functional Assay (CASA Assay), cGMP generation
- measurementSetup: CHO-K1/sGC cells, 1 hr at 37° C., cGMP by HTRF, 4P fit; presence or absence of 1 μM DETA-NO not given; read-out: IP (nM) (inflection point)
measuredMetric: EC50 (nM)

1. CC1(c2ccc(F)cn2)C(=O)Nc2nc(-c3cn4ncnc4c(CCCC(F)(F)F)n3)ncc21 (stereo not drawn) [Example 176B]: 526
2. CC1(c2cccc(F)c2)C(=O)Nc2nc(-c3cn4ncnc4c(CCC(F)(F)C(F)(F)F)n3)nc(N)c21 (stereo not drawn) [Example 14B]: 5.5
3. CC1(c2ccc(Cl)cc2)C(=O)Nc2nc(-c3cn4ncnc4c(CCC(F)(F)F)n3)nc(N)c21 (stereo not drawn) [Example 76A]: 154
4. C[C@@]1(c2ccc(F)cc2)C(=O)Nc2nc(-c3cn4ncnc4c(CCC(F)(F)F)n3)ncc21 [Example 174A]: 1350
5. Nc1nc(-c2cn3ncnc3c(CCCC(F)(F)F)n2)nc2c1C(c1nnc(C3(F)CC3)o1)(C1CC1)C(=O)N2 (stereo not drawn) [Example 108A]: 14.7
6. CC1(c2ccc(C(F)(F)F)cn2)C(=O)Nc2nc(-c3cn4ncnc4c(CCCC(F)(F)F)n3)nc(N)c21 (stereo not drawn) [Example 25B]: 27
7. CCCc1nc(-c2nc(O)c3c(n2)NC(=O)C3(C)c2ccc(Cl)cc2)cn2ncnc12 (stereo not drawn) [Example 164A]: 780
8. CC1(c2ccccc2)C(=O)Nc2nc(-c3cn4ncnc4c(CCC(F)(F)C(F)(F)F)n3)nc(O)c21 (stereo not drawn) [Example 128B]: 128
9. CCCCc1nc(-c2nc(N)c3c(n2)NC(=O)C3(c2ccc(C(F)(F)F)cn2)C2CC2)cn2ncnc12 (stereo not drawn) [Example 70A]: 41.8
10. CC1(c2cncc(F)c2)C(=O)Nc2nc(-c3cn4ncnc4c(CCC(F)(F)C(F)(F)F)n3)nc(N)c21 (stereo not drawn) [Example 9A]: 63
11. CC(C)Cc1nc(-c2nc(O)c3c(n2)NC(=O)[C@@]3(C)c2ccc(F)cc2)cn2ncnc12 [Example 163A]: 1630
12. Cc1ccc(C2(C)C(=O)Nc3nc(-c4cn5ncnc5c(CCC(F)(F)C(F)(F)F)n4)nc(O)c32)nc1 (stereo not drawn) [Example 130B]: 503
13. CC1(c2ccc(Cl)c(F)c2)C(=O)Nc2nc(-c3cn4ncnc4c(CCC(F)(F)C(F)(F)F)n3)nc(O)c21 (stereo not drawn) [Example 121B]: 130
14. Nc1nc(-c2cn3ncnc3c(CCCC(F)(F)F)n2)nc2c1C(c1ccc(Cl)cn1)(C1CC1)C(=O)N2 (stereo not drawn) [Example 27A]: 278
15. Nc1nc(-c2cn3ncnc3c(CCCC(F)(F)F)n2)nc2c1C(c1ccccn1)(C1CC1)C(=O)N2 (stereo not drawn) [Example 115A]: 233
